Assay: Metabolic stability of test compounds in human liver microsomes
Type: in vitro ADME
Details: human, liver microsomes, pH 7.4, half-life in human liver microsomes, Table 3, Exp D; read-out: T1/2 (min) Exp D
READOUT: half-life (min)
Write down the numeric answer in min and omit the unit.

Record excerpt, results attached:
{"columns": ["COMPOUND", "VALUE_REPORTED"],
 "data": [
  ["CC(C)CN(C[C@@H](O)[C@H](Cc1ccccc1)NC(=O)O[C@H]1CO[C@H]2OCC[C@H]21)S(=O)(=O)c1ccc2ncsc2c1 [Compound 302, reference compound]", 8.7],
  ["[2H]C([2H])([2H])C([2H])(C([2H])([2H])[2H])C([2H])([2H])N(C[C@@H](O)[C@H](Cc1ccccc1)NC(=O)O[C@]1([2H])[C@H]2[C@H](OC([2H])([2H])C2([2H])[2H])OC1([2H])[2H])S(=O)(=O)c1ccc2ncsc2c1", 7.9],
  ["[2H]C([2H])([2H])C([2H])(C([2H])([2H])[2H])C([2H])([2H])N(C[C@@H](O)[C@H](Cc1ccccc1)NC(=O)O[C@@]1([2H])C([2H])([2H])O[C@@]2([2H])OC([2H])([2H])C([2H])([2H])[C@]21[2H])S(=O)(=O)c1ccc2ncsc2c1", 15.1]
]}

**Q:** Recorded half-life for `[2H]C([2H])([2H])C([2H])(C([2H])([2H])[2H])C([2H])([2H])N(C[C@@H](O)[C@H](Cc1ccccc1)NC(=O)O[C@]1([2H])[C@@H]2CCO[C@@H]2OC1([2H])[2H])S(=O)(=O)c1ccc2ncsc2c1` , please?
**A:** 8.6

* * *

Test: Metabolic stability of test compounds in human liver microsomes
Type: in vitro ADME
Conditions: human, liver microsomes, pH 7.4, half-life in human liver microsomes, Table 3, Exp C; read-out: T1/2 (min) Exp C
Method: Determination of Metabolic Stability of Test Compounds in Human Liver Microsomes. […] 7.5 mM stock solutions of test compounds were prepared in DMSO. […] Supernatants were transferred to another 96-well plate and analyzed for amounts of parent compound remaining by LC-MS/MS using an Applied Bio-systems API 4000 mass spectrometer. […]
READOUT: half-life (min)
Write down the numeric answer in min and omit the unit.

Record excerpt, results attached:
{"columns": ["COMPOUND", "half-life (min)"],
 "data": [
  ["CC(C)CN(C[C@@H](O)[C@H](Cc1ccccc1)NC(=O)O[C@H]1CO[C@H]2OCC[C@H]21)S(=O)(=O)c1ccc2ncsc2c1 [Compound 302, reference compound]", 8.2],
  ["[2H]C([2H])([2H])C([2H])(C([2H])([2H])[2H])C([2H])([2H])N(C[C@@H](O)[C@H](Cc1ccccc1)NC(=O)O[C@]1([2H])[C@@H]2CCO[C@@H]2OC1([2H])[2H])S(=O)(=O)c1ccc2ncsc2c1", 8.7],
  ["[2H]C([2H])([2H])C([2H])(C([2H])([2H])[2H])C([2H])([2H])N(C[C@@H](O)[C@H](Cc1ccccc1)NC(=O)O[C@]1([2H])[C@H]2[C@H](OC([2H])([2H])C2([2H])[2H])OC1([2H])[2H])S(=O)(=O)c1ccc2ncsc2c1", 8.3]
]}

**Q:** Recorded half-life for `[2H]C([2H])([2H])C([2H])(C([2H])([2H])[2H])C([2H])([2H])N(C[C@@H](O)[C@H](Cc1ccccc1)NC(=O)O[C@@]1([2H])C([2H])([2H])O[C@@]2([2H])OC([2H])([2H])C([2H])([2H])[C@]21[2H])S(=O)(=O)c1ccc2ncsc2c1` , please?
**A:** 11.7
